Reference for the values: ChEMBL document CHEMBL4373715

target: DNA topoisomerase 2-alpha (Homo sapiens) (UniProt P11388); experiment: Inhibition of recombinant human topoisomerase 2alpha-mediated relaxation of supercoiled pBR322 DNA at 100 uM measured after 30 mins by ethidium bromide staining based agarose gel electrophoresis relative to control
Sequence (P11388 whole entry): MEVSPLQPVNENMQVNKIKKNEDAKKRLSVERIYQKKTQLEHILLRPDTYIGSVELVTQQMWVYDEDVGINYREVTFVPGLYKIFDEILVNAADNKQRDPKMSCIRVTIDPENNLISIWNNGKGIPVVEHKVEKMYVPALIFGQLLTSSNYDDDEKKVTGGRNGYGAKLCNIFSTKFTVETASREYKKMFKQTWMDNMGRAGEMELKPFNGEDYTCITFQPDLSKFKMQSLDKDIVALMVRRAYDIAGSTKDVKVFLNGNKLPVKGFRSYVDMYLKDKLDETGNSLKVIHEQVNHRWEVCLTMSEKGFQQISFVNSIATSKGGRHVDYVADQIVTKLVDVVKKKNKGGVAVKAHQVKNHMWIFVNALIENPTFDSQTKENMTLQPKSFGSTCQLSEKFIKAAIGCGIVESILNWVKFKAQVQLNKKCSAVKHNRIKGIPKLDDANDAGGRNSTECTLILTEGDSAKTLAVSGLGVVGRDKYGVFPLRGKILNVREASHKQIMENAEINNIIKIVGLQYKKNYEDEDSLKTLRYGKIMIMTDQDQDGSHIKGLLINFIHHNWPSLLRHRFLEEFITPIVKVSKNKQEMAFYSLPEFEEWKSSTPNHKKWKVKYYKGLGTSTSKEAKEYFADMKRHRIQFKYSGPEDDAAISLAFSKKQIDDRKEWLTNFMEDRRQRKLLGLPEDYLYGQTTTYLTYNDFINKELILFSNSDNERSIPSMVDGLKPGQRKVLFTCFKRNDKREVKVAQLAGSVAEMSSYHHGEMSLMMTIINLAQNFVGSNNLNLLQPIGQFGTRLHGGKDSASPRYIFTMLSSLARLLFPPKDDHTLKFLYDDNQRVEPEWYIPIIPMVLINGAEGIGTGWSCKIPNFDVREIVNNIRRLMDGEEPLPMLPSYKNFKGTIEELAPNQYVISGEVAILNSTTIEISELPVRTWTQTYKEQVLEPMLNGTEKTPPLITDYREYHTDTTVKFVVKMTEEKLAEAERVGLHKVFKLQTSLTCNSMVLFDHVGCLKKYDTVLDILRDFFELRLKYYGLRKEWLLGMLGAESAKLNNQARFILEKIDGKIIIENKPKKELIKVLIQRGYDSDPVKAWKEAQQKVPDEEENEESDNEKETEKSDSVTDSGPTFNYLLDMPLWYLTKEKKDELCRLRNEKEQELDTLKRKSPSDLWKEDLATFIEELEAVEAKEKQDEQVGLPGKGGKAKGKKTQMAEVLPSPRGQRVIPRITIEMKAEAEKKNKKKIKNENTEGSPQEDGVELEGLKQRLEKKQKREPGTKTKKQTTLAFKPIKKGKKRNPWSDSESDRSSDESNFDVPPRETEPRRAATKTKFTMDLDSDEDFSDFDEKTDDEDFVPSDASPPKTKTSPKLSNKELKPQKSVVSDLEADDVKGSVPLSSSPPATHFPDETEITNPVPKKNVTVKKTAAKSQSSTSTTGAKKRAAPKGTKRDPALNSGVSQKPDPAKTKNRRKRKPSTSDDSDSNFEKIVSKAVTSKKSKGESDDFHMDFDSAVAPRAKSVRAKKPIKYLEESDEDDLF
readout.label: inhibition (%)

{"chem.smiles": "Oc1ccc(-c2cc(-c3ccccc3Cl)c3c(n2)-c2cccc(O)c2C3)cc1", "subject.of.test": "DNA topoisomerase 2-alpha (Homo sapiens) (UniProt P11388)", "readout.label": "inhibition", "measured": 97}
{"chem.smiles": "Oc1cccc(-c2cc(-c3ccc(Cl)cc3)nc3c2Cc2c(O)cccc2-3)c1", "subject.of.test": "DNA topoisomerase 2-alpha (Homo sapiens) (UniProt P11388)", "readout.label": "inhibition", "measured": 76.8}
{"chem.smiles": "Oc1cccc(-c2cc(-c3ccccc3Cl)nc3c2Cc2c(O)cccc2-3)c1", "subject.of.test": "DNA topoisomerase 2-alpha (Homo sapiens) (UniProt P11388)", "readout.label": "inhibition", "measured": 100}
{"chem.smiles": "Oc1cccc(-c2cc(-c3cccc(Cl)c3)c3c(n2)-c2ccc(O)cc2C3)c1", "subject.of.test": "DNA topoisomerase 2-alpha (Homo sapiens) (UniProt P11388)", "readout.label": "inhibition", "measured": 83}
{"chem.smiles": "Oc1ccc2c(c1)-c1nc(-c3ccc(Cl)cc3)cc(-c3ccccc3O)c1C2", "subject.of.test": "DNA topoisomerase 2-alpha (Homo sapiens) (UniProt P11388)", "readout.label": "inhibition", "measured": 86.6}

(I) Oc1ccc2c(c1)-c1nc(-c3cccc(Cl)c3)cc(-c3ccccc3O)c1C2
(II) Oc1cccc(-c2cc(-c3ccccc3)nc3c2Cc2ccc(O)cc2-3)c1
(III) Oc1ccc2c(c1)Cc1c(-c3ccccc3Cl)cc(-c3ccccc3O)nc1-2
INPUT: Place the items in sequence of falling inhibition. Put the labels in the order asked and list them.
OUTPUT: I, III, II

###

test system: HeLa; test: Antiproliferative activity against human HeLa cells measured after 72 hrs by EZ-Cytox assay; assay type: functional, cell-based
readout.label: IC50 (µM)
A number alone suffices; assume µM.

{"chem.smiles": "Oc1ccc2c(c1)-c1nc(-c3ccccc3O)cc(-c3cccc(Cl)c3)c1C2", "IC50, µM": 20}
{"chem.smiles": "Oc1cccc(-c2cc(-c3ccccc3Cl)c3c(n2)-c2c(O)cccc2C3)c1", "IC50, µM": 3.64}
{"chem.smiles": "Oc1ccc(-c2cc(-c3cccc(Cl)c3)nc3c2Cc2cccc(O)c2-3)cc1", "IC50, µM": 6.23}
{"chem.smiles": "Oc1cccc(-c2cc(-c3ccccc3C(F)(F)F)nc3c2Cc2c(O)cccc2-3)c1", "IC50, µM": 3.79}

INPUT: Consider the compound Oc1cccc(-c2cc(-c3ccccc3)nc3c2Cc2ccc(O)cc2-3)c1 and give its measured IC50.
OUTPUT: 1.38

INPUT: Which IC50 is reported for this compound? Oc1ccccc1-c1cc(-c2ccccc2Cl)nc2c1Cc1c(O)cccc1-2
OUTPUT: 0.68

INPUT: Could you share which IC50 value was measured for Oc1ccc(-c2cc(-c3ccccc3Cl)nc3c2Cc2c(O)cccc2-3)cc1 ?
OUTPUT: 2.46

INPUT: What IC50 value was documented for this compound, Oc1ccc(-c2cc(-c3ccccc3Cl)nc3c2Cc2cccc(O)c2-3)cc1 ?
OUTPUT: 2.85

INPUT: Return reported IC50; argument: Oc1cccc(-c2cc(-c3ccccc3)nc3c2Cc2c(O)cccc2-3)c1
OUTPUT: 6.74

###

assay: Half life in Sprague-Dawley rat liver microsomes at 1 mM in presence of NADPH by LC-MS/MS analysis; type: ADME, Microsome
readout.label: half-life (min)
Numeric only. Scale: min

INPUT: Given Oc1ccc(-c2cc(-c3ccccc3Cl)nc3c2Cc2c(O)cccc2-3)cc1 , state its recorded half-life.
OUTPUT: 1560

###

test: Half life in ICR mouse liver microsomes at 1 mM in presence of NADPH by LC-MS/MS analysis; format: ADME, Microsome
readout.label: half-life (h)
Report the value in h with no unit label.

INPUT: Item Oc1ccc(-c2cc(-c3ccccc3Cl)nc3c2Cc2c(O)cccc2-3)cc1 has what recorded half-life?
OUTPUT: 2.61

###

target: DNA topoisomerase 2-alpha (Homo sapiens); assay: Inhibition of recombinant human topoisomerase 2alpha-mediated relaxation of supercoiled pBR322 DNA at 100 uM measured after 30 mins by ethidium bromide staining based agarose gel electrophoresis relative to control
readout.label: inhibition (%)

{"chem.smiles": "Oc1ccc(-c2cc(-c3ccccc3Cl)nc3c2Cc2cccc(O)c2-3)cc1", "unit.spec": "%", "inhibition": 30.3}
{"chem.smiles": "Oc1ccc(-c2cc(-c3ccc(C(F)(F)F)cc3)nc3c2Cc2cc(O)ccc2-3)cc1", "unit.spec": "%", "inhibition": 83.2}
{"chem.smiles": "Oc1ccccc1-c1cc(-c2cccc(Cl)c2)nc2c1Cc1c(O)cccc1-2", "unit.spec": "%", "inhibition": 83.5}
{"chem.smiles": "Oc1ccccc1-c1cc(-c2ccc(F)cc2)nc2c1Cc1c(O)cccc1-2", "unit.spec": "%", "inhibition": 67}
{"chem.smiles": "Oc1ccc(-c2cc(-c3ccccc3Cl)c3c(n2)-c2cc(O)ccc2C3)cc1", "unit.spec": "%", "inhibition": 74.8}

(P) Oc1ccc(-c2cc(-c3cccc(C(F)(F)F)c3)nc3c2Cc2c(O)cccc2-3)cc1
(Q) Oc1ccc(-c2cc(-c3cccc(F)c3)nc3c2Cc2ccc(O)cc2-3)cc1
INPUT: Problem: Given the entries P and Q , determine which has the lower reported inhibition. Answer = label.
OUTPUT: Q
(Q: 6.2%, P: 84.4%)

(1) Oc1ccc2c(c1)Cc1c(-c3ccccc3O)cc(-c3ccccc3C(F)(F)F)nc1-2
(2) Oc1ccccc1-c1cc(-c2cccc(F)c2)nc2c1Cc1cccc(O)c1-2
(3) Oc1ccc(-c2cc(-c3ccccc3)nc3c2Cc2cccc(O)c2-3)cc1
(4) Oc1cccc(-c2cc(-c3ccccc3)c3c(n2)-c2c(O)cccc2C3)c1
(5) Oc1ccc(-c2cc(-c3ccccc3)c3c(n2)-c2ccc(O)cc2C3)cc1
INPUT: Place the items in sequence of falling inhibition. Give your ranking as a list of the labels in the requested order.
OUTPUT: 1, 5, 2, 3, 4

(1) Oc1ccc2c(c1)Cc1c(-c3ccccc3O)cc(-c3cccc(Cl)c3)nc1-2
(2) Oc1ccc(-c2cc(-c3ccccc3F)nc3c2Cc2ccc(O)cc2-3)cc1
INPUT: Would you mind telling me which has the lower recorded inhibition between 1 and 2 ? Kindly give the label for the entry you pick.
OUTPUT: 2
(2: 6.4%, 1: 80.8%)

###

test system: DU-145; assay: Antiproliferative activity against human DU145 cells measured after 72 hrs by EZ-Cytox assay; type: functional, cell-based; conditions: DU-145, 72 h
readout.label: IC50 (nM)
Give a bare numeral; the unit nM is implied.

The following compounds have reported results that may help.
{"chem.smiles": "Oc1cccc(-c2cc(-c3ccc(F)cc3)nc3c2Cc2cc(O)ccc2-3)c1", "measured": 2940}
{"chem.smiles": "Oc1ccc2c(c1)-c1nc(-c3ccccc3C(F)(F)F)cc(-c3ccccc3O)c1C2", "measured": 2860}
{"chem.smiles": "Oc1cccc(-c2cc(-c3ccccc3)c3c(n2)-c2cc(O)ccc2C3)c1", "measured": 420}
{"chem.smiles": "Oc1cccc(-c2cc(-c3ccc(Cl)cc3)c3c(n2)-c2cc(O)ccc2C3)c1", "measured": 32200}

Switching to the query record.
INPUT: Would you mind telling me what IC50 value was observed for Oc1cccc(-c2cc(-c3ccc(Cl)cc3)nc3c2Cc2cc(O)ccc2-3)c1 ?
OUTPUT: 1280

###

experiment: Stability in human plasma assessed as parent compound remaining at 1 mM measured after 2 hrs by LC-MS/MS analysis; format: ADME, cell-free; conditions: read-out: Stability
readout.label: remaining at 2 h (%)
Provide only the numeric value, understood in %.

INPUT: Could you tell me which remaining at 2 h is on file for Oc1ccc(-c2cc(-c3ccccc3Cl)nc3c2Cc2c(O)cccc2-3)cc1 ?
OUTPUT: 100

###

target: DNA topoisomerase 1 (Homo sapiens) (UniProt P11387); assay: Inhibition of recombinant human topoisomerase 1-mediated relaxation of supercoiled pBR322 DNA at 100 uM measured after 30 mins by ethidium bromide staining based agarose gel electrophoresis relative to control
Sequence (P11387 whole entry): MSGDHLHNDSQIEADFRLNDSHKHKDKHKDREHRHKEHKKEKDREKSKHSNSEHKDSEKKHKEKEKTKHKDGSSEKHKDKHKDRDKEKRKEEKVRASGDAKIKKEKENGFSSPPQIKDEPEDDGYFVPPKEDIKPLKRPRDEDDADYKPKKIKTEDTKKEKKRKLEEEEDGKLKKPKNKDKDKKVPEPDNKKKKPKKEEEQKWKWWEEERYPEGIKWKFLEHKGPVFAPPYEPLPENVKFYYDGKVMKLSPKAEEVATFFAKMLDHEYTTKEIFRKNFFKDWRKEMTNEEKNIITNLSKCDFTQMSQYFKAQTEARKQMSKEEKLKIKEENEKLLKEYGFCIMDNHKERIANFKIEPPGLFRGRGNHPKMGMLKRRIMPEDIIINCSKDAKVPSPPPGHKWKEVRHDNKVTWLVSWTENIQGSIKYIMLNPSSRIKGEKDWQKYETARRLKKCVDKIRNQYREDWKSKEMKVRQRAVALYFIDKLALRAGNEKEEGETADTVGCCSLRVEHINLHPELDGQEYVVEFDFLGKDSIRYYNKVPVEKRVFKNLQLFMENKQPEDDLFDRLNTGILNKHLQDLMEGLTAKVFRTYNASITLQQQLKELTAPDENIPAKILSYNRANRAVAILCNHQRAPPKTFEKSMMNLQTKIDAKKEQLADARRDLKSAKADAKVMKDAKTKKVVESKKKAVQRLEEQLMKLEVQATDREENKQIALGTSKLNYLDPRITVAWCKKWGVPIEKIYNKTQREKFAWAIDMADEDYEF
readout.label: inhibition (%)

{"chem.smiles": "Oc1ccccc1-c1cc(-c2ccccc2Cl)nc2c1Cc1cccc(O)c1-2", "inhibition, %": 13.4}

(a) Oc1cccc(-c2cc(-c3ccccc3F)nc3c2Cc2ccc(O)cc2-3)c1
(b) Oc1ccc(-c2cc(-c3ccc(Cl)cc3)c3c(n2)-c2cccc(O)c2C3)cc1
(c) Oc1ccccc1-c1cc(-c2ccccc2)c2c(n1)-c1cccc(O)c1C2
(d) Oc1cccc(-c2cc(-c3ccccc3Cl)nc3c2Cc2ccc(O)cc2-3)c1
INPUT: Hey, quick one: sort these by inhibition, low to high? I would appreciate it if you listed the labels in the requested order.
OUTPUT: b, d, c, a
